Source of measurements: ChEMBL document CHEMBL3433997

tested on: Glucose transporter (Leishmania mexicana)
assay remarks: ST_JUDE_LEISH: Cytotoxicity at 2uM final concentration against transgenic Leishmania Mexicana promastigotes LmGT2 that are glucose transport deficient and complemented with the L. Mexicana glucose transporter 2. Activity is measured by DNA content using SYBR green in vitro
Format: functional
Would you mind telling me the reported inhibition of each entry?
# number only, unit % dropped from output

Summary for this compound, Oc1ccc(C=NNC(S)=Nc2cccc3ccccc23)c(O)c1 : inhibition is 2.47

Memo: Cc1ccc2[nH]c(C)cc(=NN=Cc3ccccc3F)c2c1 , reported inhibition: 8.78

Reported inhibition of CC1(C)NC(N)=NC(=N)N1OCOc1ccc(Cl)cc1 : 4.23

Value of measured inhibition for the entry CC(C)Cn1ncc2c3c(N)nc(N)nc3ccc21 : 4.36

Entry COc1ccc(Nc2nccc(-c3ccc(NC(=O)c4cc5cc(F)ccc5[nH]4)cc3)n2)cc1 , inhibition reported as -1.37

Value of measured inhibition for the entry O=C(Nc1ccc(-c2nc3ccccc3[nH]2)cc1)c1cnc(Cl)c(Cl)c1 : 2.62

Documented inhibition of CC(C)(C)c1ccc(CN2CCC(CNC(=O)c3cc(-c4ccccc4F)cs3)C2)cc1 (stereo not given) : 0.9

For reference, reported inhibition for CN1CCN(CC(=O)Nc2ccc(-c3cccc(-c4nc5cc(F)ccc5[nH]4)c3)cc2)CC1 stands at -1.87

For record O=C(Nc1cccc(CN2CCN(C(=O)c3cccs3)CC2)c1)c1cccs1 the listed inhibition is 2.26

Notebook: O=C(Nc1cccc(-c2nn3ccccc3c2-c2ccnc(Nc3ccc(-c4cc[nH]n4)cc3)n2)c1)c1c(F)cccc1F , inhibition read as 1.44

So for CCNc1cc(C(=O)N[C@@H](Cc2ccccc2)[C@H](O)CNCC(C)C)cc(N2CCCC2=O)c1 , the logged inhibition turned out to be -1.69

// inhibition lookup, compound = COc1cccc(NC(=O)Nc2ccc(Nc3nc(C)cc(N4CCCC4)n3)cc2)c1 , result: 1.4

Input COc1ccc2[nH]c(C(=O)Nc3ccc4[nH]c(-c5ccccc5)nc4c3)cc2c1 . Output inhibition: 0.82

inhibition reading for O=C(N[C@H]1CCN(Cc2ccc(OCCN3CCCC3)c3ccccc23)C1)c1ccc(Cl)c(Cl)c1 : -2.78

inhibition measured on CC(=O)Nc1ccc(CN2CCC(NC(=O)c3ccc(-c4ccc(N(C)C)cc4)s3)CC2)cc1 = 2.63

Measured inhibition of Cc1cccc2nc(-c3ccc(-c4cccc(NC(=O)Nc5ccccc5)c4)cc3)[nH]c12 : 8.18

Query CCOC(=O)c1ccc(NC(=O)Nc2ccc(Cn3ncc(N4CCCNCC4)c(Cl)c3=O)cc2)cc1 yields inhibition of 7.11

In plain terms, CN1CCC(C(=O)N(Cc2ccc(-c3ccc(CNCCc4ccc(S(C)(=O)=O)cc4)cn3)cc2)Cc2ccc3c(c2)OCO3)CC1 has a documented inhibition of 3.77

Per the record, CN(C)c1ccc(CN2CCC(NC(=O)c3ccc(-c4ccccc4Cl)s3)CC2)cc1 has inhibition of 1.76

GET /value?item= O=C(/C=C/c1ccc(Cl)c(Cl)c1)NCCCCCCN1CCCN(C(=O)Nc2cc(Cl)cc(Cl)c2)CC1 &field=inhibition returns -2.48

Sample Cc1ccc(F)cc1S(=O)(=O)N1CCCCC(c2ccc(C(F)(F)F)cc2)=N1 ; inhibition observed: 8.34

In plain terms, CC(=O)Oc1cc(C(=O)Nc2ccc(Cl)cc2)cc2ccccc12 has a documented inhibition of 5.8

For record Cc1cccc2nc(-c3ccc(-c4cccc(CN5CCCCC5)c4)s3)[nH]c12 the listed inhibition is 1.81

Consider COc1ccccc1C1CCN(C2CCC(NC(=O)/C=C/c3cc(C(F)(F)F)cc(C(F)(F)F)c3)CC2)CC1 (stereo not given) . Its measured inhibition is -2.77

Sample CCOCCCn1c(=N)c(C(=O)NC(C)c2ccccc2)cc2c(=O)n3cccc(C)c3nc21 (stereo not given) ; inhibition observed: 3.81
